target: β-glucosidase (G3ase) (Komagataeibacter sucrofermentans, UniProt O24749); assay: Effect of metal ions and chemical agents on β-glucosidase (G3ase) activity; assay type: biochemical, Acetobacter xylinum subsp. sucrofermentans BPR 2001; settings: compound 1 mM; non-added sample = 100%
Sequence (O24749 entry or part of it): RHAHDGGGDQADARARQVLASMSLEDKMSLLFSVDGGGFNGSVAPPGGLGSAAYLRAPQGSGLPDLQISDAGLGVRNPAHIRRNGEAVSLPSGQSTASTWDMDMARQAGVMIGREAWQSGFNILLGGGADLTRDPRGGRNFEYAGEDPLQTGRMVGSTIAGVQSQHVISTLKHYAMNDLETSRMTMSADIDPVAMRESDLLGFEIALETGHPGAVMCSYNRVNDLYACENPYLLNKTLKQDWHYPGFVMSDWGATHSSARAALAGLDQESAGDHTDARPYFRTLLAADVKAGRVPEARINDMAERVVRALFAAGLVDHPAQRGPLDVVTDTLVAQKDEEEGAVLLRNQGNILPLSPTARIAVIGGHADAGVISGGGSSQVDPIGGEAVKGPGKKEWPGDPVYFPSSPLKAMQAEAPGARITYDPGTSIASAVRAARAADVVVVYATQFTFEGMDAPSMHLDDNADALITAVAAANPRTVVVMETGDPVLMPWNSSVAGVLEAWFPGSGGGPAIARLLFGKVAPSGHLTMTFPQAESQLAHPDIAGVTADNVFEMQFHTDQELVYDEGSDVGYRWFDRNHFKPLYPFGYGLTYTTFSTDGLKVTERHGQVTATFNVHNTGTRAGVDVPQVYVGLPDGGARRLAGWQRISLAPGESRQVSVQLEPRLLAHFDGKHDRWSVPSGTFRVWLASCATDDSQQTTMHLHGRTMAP
READOUT: Relative activity (%)
Respond numerically; units are % and should not be typed.

Specify reported Relative activity (%) for the molecule shown: O=S(=O)([O-])[O-].[Cu+2] [CuSO4] 115.7

In one line, give reported Relative activity (%) of the entry O=S(=O)([O-])[O-].[Mn+2] [MnSO4] . 114.5

Identify the reported Relative activity (%) for the following entry. [Ca+2].[Cl-].[Cl-] [CaCl2] 100

Give me measured Relative activity (%), please, for this molecule: OCCS [2ME, 2-mercaptoethanol] 106

Specify Relative activity (%) for O=C(O)CI [IAA, iodo acetate] and stop. 126.5

Hello, please tell me recorded Relative activity (%) for this one: O=S(=O)([O-])[O-].[Zn+2] [ZnSO4] 90.4

Tell me its Relative activity (%) given O=S(=O)([O-])[O-].[Mg+2] [MgSO4] as the entry. 95.2

Give Relative activity (%) for O=S(=O)([O-])[O-].[Fe+2] [FeSO4] 91.6

// Input: [Cl][Hg][Cl] [HgCl2] . Output its Relative activity (%) only. 85.5
